- TEST TARGET: MERTK (UniProt Q12866)
- Sequence (Q12866 whole entry, looked up): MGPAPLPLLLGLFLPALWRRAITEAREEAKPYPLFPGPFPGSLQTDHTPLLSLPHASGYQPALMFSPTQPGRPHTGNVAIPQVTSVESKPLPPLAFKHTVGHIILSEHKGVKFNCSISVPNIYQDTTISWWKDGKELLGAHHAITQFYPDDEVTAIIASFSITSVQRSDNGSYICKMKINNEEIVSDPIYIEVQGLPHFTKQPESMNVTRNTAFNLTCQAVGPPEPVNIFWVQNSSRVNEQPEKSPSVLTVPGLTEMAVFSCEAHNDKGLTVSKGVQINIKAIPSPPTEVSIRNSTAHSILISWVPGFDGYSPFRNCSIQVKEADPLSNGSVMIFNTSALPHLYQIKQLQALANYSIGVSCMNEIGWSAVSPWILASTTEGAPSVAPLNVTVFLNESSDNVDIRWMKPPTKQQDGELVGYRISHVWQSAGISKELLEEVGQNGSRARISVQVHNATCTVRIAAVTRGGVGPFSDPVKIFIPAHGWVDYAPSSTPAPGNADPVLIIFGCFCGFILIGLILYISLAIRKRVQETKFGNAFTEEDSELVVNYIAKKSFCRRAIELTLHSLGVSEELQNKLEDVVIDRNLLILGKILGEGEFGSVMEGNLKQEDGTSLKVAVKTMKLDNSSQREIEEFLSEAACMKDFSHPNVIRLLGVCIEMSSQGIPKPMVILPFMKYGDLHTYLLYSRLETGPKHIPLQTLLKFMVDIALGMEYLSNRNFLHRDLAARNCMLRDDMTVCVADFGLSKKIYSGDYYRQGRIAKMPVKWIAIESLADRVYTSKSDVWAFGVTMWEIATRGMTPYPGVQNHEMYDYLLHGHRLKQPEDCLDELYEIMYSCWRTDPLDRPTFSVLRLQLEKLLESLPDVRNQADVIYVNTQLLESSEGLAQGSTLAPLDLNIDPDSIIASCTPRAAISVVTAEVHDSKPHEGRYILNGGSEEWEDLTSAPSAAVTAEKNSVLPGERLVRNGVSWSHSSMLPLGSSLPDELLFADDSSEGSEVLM
- PROTOCOL DESCRIPTION: phosphorylation enrichment, bacterial display (enrichment ratio); higher = better substrate or ligand; peptides without Tyr show the background;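 further: 11-residue human phosphosite peptides and single-mutation variants displayed on the E. coli surface, counted by deep sequencing, each peptide's frequency after selection divided by its frequency in the unselected input library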;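 further: frequency after pTyr selection over input frequency; kinase dosed for 20-30% of maximal phosphorylation in three min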
Classification by phosphorylation enrichment follows these ranges: low: < 0.4; medium: ≥ 0.4 and < 0.6; high: ≥ 0.6

query_sequence="MPLTKYLKRIK [CNGB3_Y200_E199K]" category_label=medium
query_sequence="PDKRIYQFTAS [SKAP2_Y197_A202S]" category_label=high
query_sequence="QNTGDYYDLYG [PTPN11_Y62]" category_label=high
query_sequence="LAEMNYVHRDL [EPHB1_Y740]" category_label=high
query_sequence="IRFSDYVEVAD [PHACTR1_Y525]" category_label=medium

### Prompt Pick a category. Item: ANNQRYAFMPL [TMEM87B_Y460]
### Response high

### Prompt Pick a category. Item: GANFEYIIAEK [ECHS1_Y35]
### Response medium

### Prompt Pick a category. Item: FETDFYRKGGK [INSR_Y1190_YF]
### Response medium

### Prompt Pick a category. Item: QDLRLYRPHLA [BTK_Y617_G613D]
### Response low

### Prompt Pick a category. Item: RAEAPYLLVSN [LRIG1_Y1054_Q1053P]
### Response medium

### Prompt Pick a category. Item: YGSSSYGGAGG [RPA2_Y14]
### Response low

### Prompt Pick a category. Item: GIVEDYRPRFF [ACVRL1_Y421_P424R_YF]
### Response high

### Prompt Pick a category. Item: AIQDAYMHITS [ADCY10_Y318]
### Response medium

### Prompt Pick a category. Item: ASTHIYQIMNH [ITK_Y588_V587I]
### Response high

### Prompt Pick a category. Item: EKGEEYGGGGG [TUBA1A_Y451_E447K]
### Response low
